test-system: TNFα (Homo sapiens, UniProt P01375)
Sequence (P01375 77-233 limits assumed): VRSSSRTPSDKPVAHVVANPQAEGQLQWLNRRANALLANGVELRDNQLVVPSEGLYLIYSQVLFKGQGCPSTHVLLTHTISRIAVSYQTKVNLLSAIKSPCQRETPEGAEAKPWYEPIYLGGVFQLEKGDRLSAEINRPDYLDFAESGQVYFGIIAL
test-summary: TNF induced HEK-Blue assay (NF-kB-driven secreted alkaline phosphatase reporter)
Type: cell-based
cond: TNFα 0.5 ng/mL, HEK-Blue-CD40L cells, 18 h; read-out: TNF induced HEK-Blue assay IC50 value
pIC50: −log10 of the molar value.
value-type: pIC50

Record excerpt, results attached:
INSERT INTO results (molecule, test_system, value_type, result) VALUES
  ('CC#CC(=O)N1CCN(c2ccc(-c3ccc4ncc(Cl)c(N[C@H](C)c5ccccc5F)c4c3)cn2)CC1 [Example 125]', 'TNFα (Homo sapiens, UniProt P01375)', 'pIC50', '> 6.00'),
  ('CC(Nc1c(Cl)cnc2cc(F)c(-c3ccc(C4COCCN4)cc3)cc12)c1ccccc1F (single isomer, unassigned) [Example 598]', 'TNFα (Homo sapiens, UniProt P01375)', 'pIC50', '5.00 to 6.00'),
  ('C[C@@H](Nc1c(Cl)cnc2ccc(-c3ccc(C4(NS(C)(=O)=O)CCC4)cc3)cc12)c1ccccc1F [Example 111]', 'TNFα (Homo sapiens, UniProt P01375)', 'pIC50', '4.60 to 5.00'),
  ('CC(Nc1c(Cl)cnc2cc(F)c(-c3cnc(N4CCNCC4)nc3)cc12)c1ccccc1F (single isomer, unassigned) [Example 608]', 'TNFα (Homo sapiens, UniProt P01375)', 'pIC50', '> 6.00'),
  ('NC1(C(=O)O)CCN(c2ncc(-c3ccc4ncc(Cl)c(N[C@@H](c5ccccc5F)C(F)F)c4c3)cn2)CC1 [Example 75]', 'TNFα (Homo sapiens, UniProt P01375)', 'pIC50', '> 6.00');

Request: Answer with the recorded pIC50 for the molecule listed here: Cc1nc2ccc(-c3cnc(C(C)(C)O)nc3)cc2c(N[C@H](C)c2cc(-c3cnn(C)c3)ccc2F)c1Cl [Example 344]
Result: > 6.00

Request: Answer with the recorded pIC50 for the molecule listed here: Cc1ncc(-c2ccc(F)c([C@@H](C)Nc3c(Cl)cnc4ccccc34)c2)cn1 [Example 535]
Result: > 6.00

Request: Answer with the recorded pIC50 for the molecule listed here: C[C@@H](Nc1c(Cl)cnc2ccccc12)c1cc(-c2cncc(C#N)c2)ccc1F [Example 541]
Result: 5.00 to 6.00

Request: Answer with the recorded pIC50 for the molecule listed here: CC(Nc1c(Cl)cnc2cc(F)c(-c3ccc(C(O)CO)cc3)cc12)c1ccccc1F (stereo not drawn) [Example 291]
Result: > 6.00

Request: Answer with the recorded pIC50 for the molecule listed here: CC(Nc1c(Cl)cnc2cc(F)c(-c3cnc(C(C)(C)O)nc3)nc12)c1ccccc1F (racemic) [Example 209]
Result: > 6.00

Request: Answer with the recorded pIC50 for the molecule listed here: C[C@@H](Nc1c(Cl)cnc2ccc(-c3cnn(C)c3)cc12)c1cc(-c2cncnc2)ccc1F [Example 550]
Result: > 6.00

Request: Answer with the recorded pIC50 for the molecule listed here: CC(C)(O)c1ncc(-c2cc3c(NC4(c5ccccc5F)CCC4)c(Cl)cnc3cc2F)cn1 [Example 609]
Result: 5.00 to 6.00

Request: Answer with the recorded pIC50 for the molecule listed here: C[C@@H](Nc1c(Cl)cnc2ccc(-c3ccc(CNC(N)=O)cc3)cc12)c1ccccc1F [Example 569]
Result: > 6.00

Request: Answer with the recorded pIC50 for the molecule listed here: C[C@@H](Nc1c(Cl)cnc2ccc(-c3ccc(C(=O)NCCCCN)nc3)cc12)c1ccccc1F [Example 101]
Result: 4.60 to 5.00

Request: Answer with the recorded pIC50 for the molecule listed here: CC(C)(O)c1ncc(-c2nc3c(N[C@@H](c4cc(C(N)=O)ccc4F)C(F)F)c(Cl)cnc3cc2F)cn1 [Example 493]
Result: > 6.00

----------
test-system: TNFα (Homo sapiens, UniProt P01375)
test-summary: TNF induced HEK-Blue assay (NF-kB-driven secreted alkaline phosphatase reporter)
Assay type: cell-based
cond: TNFα 0.5 ng/mL, HEK-Blue-CD40L cells, 18 h; read-out: TNF induced HEK-Blue assay IC50 value
pIC50: −log10 of the molar value.
Overview of reported pIC50 across a group of compounds:

Record excerpt, results attached:
INSERT INTO results (compound, result) VALUES
  ('Cc1nc2cc(F)c(-c3cnc(C(C)(C)O)nc3)nc2c(N[C@@H](c2cc(C(N)=O)ccc2F)C(F)F)c1Cl', '> 6.00'),
  ('C[C@@H](Nc1c(Cl)cnc2ccc(-c3cnc(C(C)(C)O)nc3)cc12)c1cc(-c2cnccn2)ccc1F', '> 6.00'),
  ('C[C@@H](Nc1c(Cl)cnc2ccc(-c3cnc(C(C)(C)O)nc3)cc12)c1cc(C(C)(C)O)ccc1F', '5.00 to 6.00'),
  ('COCC(C)(O)c1ncc(-c2cc3c(NC(C)c4ccccc4F)c(Cl)cnc3cc2F)cn1 (stereo not shown) [Example 293]', '> 6.00');

Request: Quote TNFα (Homo sapiens, UniProt P01375) pIC50 for entry Cc1ccc(C)c(Nc2c(Cl)c(N)nc3ccc(-c4cnc(NCC(O)CO)nc4)cc23)c1 (racemic) .
Result: 5.00 to 6.00

Request: Quote TNFα (Homo sapiens, UniProt P01375) pIC50 for entry Cc1nc2ccc(-c3cnc(C(C)(C)O)nc3)cc2c(N[C@H](C)c2cc(-c3cn[nH]c3)ccc2F)c1Cl .
Result: > 6.00

Request: Quote TNFα (Homo sapiens, UniProt P01375) pIC50 for entry CC(C)C(Nc1c(Cl)cnc2ccc(-c3cnc(C(C)(C)O)nc3)cc12)c1ccccn1 (racemic) .
Result: > 6.00

----------
test-system: TNFα (Homo sapiens, UniProt P01375)
test-summary: TNF induced HEK-Blue assay (NF-kB-driven secreted alkaline phosphatase reporter)
Type: cell-based
cond: TNFα 0.5 ng/mL, HEK-Blue-CD40L cells, 18 h; read-out: TNF induced HEK-Blue assay IC50 value
pIC50: −log10 of the molar value.
value-type: pIC50

Record excerpt, results attached:
INSERT INTO assay_data (molecule, result) VALUES
  ('C[C@H](Nc1c(Cl)cnc2ccc(-c3cnc(C(C)(C)O)nc3)cc12)[C@H]1CCCN(C(=O)c2cn[nH]c2)C1', '4.60 to 5.00'),
  ('CC(CC(O)(c1ccccc1)c1ccccc1)Nc1c(Cl)cnc2ccc(-c3cnc(C(C)(C)O)nc3)cc12 (racemic)', '4.60 to 5.00'),
  ('COc1cc(-c2ccc(F)c([C@@H](C)Nc3c(Cl)cnc4ccccc34)c2)c(OC)nn1', '5.00 to 6.00'),
  ('CC(Nc1c(Cl)cnc2cc(F)c(-c3cc(F)c(C(C)(C)O)c(F)c3)cc12)c1ccccc1F (stereo not shown) [Example 268]', '> 6.00'),
  ('CCOC(=O)C1CCN(c2ncc(-c3cc4c(NC(C)c5ccccc5F)c(Cl)cnc4cc3F)cn2)CC1 (single isomer, unassigned)', '> 6.00');

Request: Answer with the recorded pIC50 for the molecule listed here: Cc1ccncc1-c1ccc(F)c([C@@H](C)Nc2c(Cl)cnc3ccccc23)c1
Result: > 6.00

Request: Answer with the recorded pIC50 for the molecule listed here: C[C@@H](Nc1c(Cl)cnc2cc(F)c(-c3cnc(C(C)(C)O)nc3)cc12)c1cc(C(N)=O)ccc1F
Result: > 6.00

----------
test-system: TNFα (Homo sapiens, UniProt P01375)
test-summary: TNF induced HEK-Blue assay (NF-kB-driven secreted alkaline phosphatase reporter)
Assay type: cell-based
cond: TNFα 0.5 ng/mL, HEK-Blue-CD40L cells, 18 h; read-out: TNF induced HEK-Blue assay IC50 value
value-type: IC50

INSERT INTO assay_data (compound, value_type, result) VALUES
  ('Fc1ccc(Br)cc1[C@H](Nc1c(Cl)cnc2ccccc12)C(F)F', 'IC50', '1 to 10 µM');

Request: Quote TNFα (Homo sapiens, UniProt P01375) IC50 for entry Cc1ccccc1-c1ccc(F)c([C@@H](C)Nc2c(Cl)c(C)nc3ccc(-c4cnc(C(C)(C)O)nc4)cc23)c1 .
Result: < 1 µM

Request: Quote TNFα (Homo sapiens, UniProt P01375) IC50 for entry Cc1nc2cc(F)c(-c3cnc(C(C)(C)O)nc3)cc2c(N[C@H](C)c2cccc(C#N)c2)c1Cl .
Result: < 1 µM

Request: Quote TNFα (Homo sapiens, UniProt P01375) IC50 for entry Cc1ccc(C)c(NCc2nc3ccc(-c4cnn(C)c4)cc3c(Nc3cc(C)ccc3C)c2Cl)c1 .
Result: 10 to 25 µM

Request: Quote TNFα (Homo sapiens, UniProt P01375) IC50 for entry C[C@@H](Nc1c(Cl)cnc2ccc(-c3cnc(C(C)(C)O)nc3)cc12)c1cc(-c2cnn(CC(=O)O)c2)ccc1F .
Result: 1 to 10 µM

Request: Quote TNFα (Homo sapiens, UniProt P01375) IC50 for entry CC(C)(O)c1ncc(-c2ccc3ncc(Cl)c(NC(c4ccccc4F)C(F)(F)F)c3c2)cn1 (racemic) .
Result: 1 to 10 µM

Request: Quote TNFα (Homo sapiens, UniProt P01375) IC50 for entry Cc1ccc(C)c(Nc2c(Cl)c(CO)nc3ccc(-c4ccc(C#N)nc4)cc23)c1 .
Result: 1 to 10 µM
